Origin of the recorded values: patent US20220040297A1

- TARGET: T1, CD3ε homodimer protein (human, UniProt P07766 23-126, limits assumed)
- T1 construct: Whole entry named for the human CD3 epsilon chain
- T1 sequence (P07766 23-126 limits assumed): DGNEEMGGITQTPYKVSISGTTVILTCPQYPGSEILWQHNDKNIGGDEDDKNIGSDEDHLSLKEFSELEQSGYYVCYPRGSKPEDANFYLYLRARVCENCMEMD
- PROCEDURE_SUMMARY: SPR, CD3e immobilized
PROPERTY_MEASURED: KD ratio to GLS3000

Prompt line: Would you kindly share the measured KD ratio to GLS3000 for GLS3000 Q90Y (antibody, IgG1, name in Kabat numbering, V domains shown) VH: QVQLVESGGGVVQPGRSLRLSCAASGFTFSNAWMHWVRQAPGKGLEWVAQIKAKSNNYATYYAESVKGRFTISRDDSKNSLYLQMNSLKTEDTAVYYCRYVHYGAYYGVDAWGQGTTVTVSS VL: DIVMTQSPLSLPVTPGEPASISCRSSQSLVHSNRNTYLHWYQQKPGQAPRLLIYKVSNRFSGVPDRFSGSGSGTDFTLKISRVEAEDVGVYYCGYGTQVPYTFGQGTKLEIK ?
Response line: 36.3
